# System: mu opiate receptor (MOR)
# experimental.details: MOR agonist activity using [35S]GTPγS binding assay in striatal membranes
# Assay type: biochemical
# measurement.parameters: Series C-1; 0.1 μM compound, relative to DAMGO
We begin with a simple list: items and their reported % DAMGO (0.1 μM).

{"columns": ["compound", "u", "% DAMGO (0.1 μM)"],
 "data": [
  ["C[C@@H](NC(=O)[C@@H](N)Cc1ccc(O)cc1)C(=O)NCC(=O)N(C)[C@@H](Cc1ccccc1)C(=O)NCCO [DAMGO, [D-Ala2, N-MePhe4, Gly-ol]-enkephalin, reference compound]", "%", 100],
  ["CS(=O)(=O)c1ccc(S(=O)(=O)N2CCC3(CC2)OCCN3S(=O)(=O)c2ccc(S(C)(=O)=O)cc2)cc1 [Compound C0009]", "%", 85.1],
  ["O=S(=O)(c1ccc(Br)cc1C(F)(F)F)N1CCC2(CC1)OCCN2S(=O)(=O)c1ccc(Br)cc1C(F)(F)F [Compound C0068]", "%", 53.4],
  ["CC(=O)c1ccc(S(=O)(=O)N2CCC3(CC2)NC(=O)CN3Cc2ccccc2)cc1 [Compound C0085M]", "%", 105.5]
]}

====

We begin with a simple list: items and their reported MOR agonist activity, percent [35S]GTPγS binding at the stated compound concentration.
# System: mu opiate receptor (MOR)
# experimental.details: MOR agonist activity using [35S]GTPγS binding assay in striatal membranes
# Format: biochemical
# measurement.parameters: Series B; 0.1 μM compound; [35S]GTPγS binding to Gαo, striatal membranes
# Protocol: To assess the mu opiate receptor (MOR) agonist activity of positive compounds from the FLNA screening, compounds were tested in a [^35S]GTPγS binding assay using striatal membranes. […] The immunocomplexes so formed were collected by incubation at 25° C. for 30 minutes with 40 μl of agarose-conjugated protein A/G beads and centrifugation at 5,000×g at 4° C. for 5 minutes. […] The radioactivity in the suspension was determined by liquid scintillation spectrometry.
property.label: MOR agonist activity, percent [35S]GTPγS binding at the stated compound concentration (%)

{"columns": ["compound", "target.of.assay", "u", "numeric.result"],
 "data": [
  ["COc1ccc(CCC(O)CC2c3c(cc4c(c3OC)OCO4)CCN2C)cc1 (centres unmarked)", "mu opiate receptor (MOR)", "%", 185.1],
  ["COc1ccc(CC(=O)CC2c3c(cc4c(c3OC)OCO4)CC[N+]2(C)C)c(OC)c1 (centres unmarked)", "mu opiate receptor (MOR)", "%", 171.9],
  ["COCOc1ccc(C(=O)CC2c3c(cc4c(c3OC)OCO4)CC[N+]2(C)C)cc1C (centres unmarked)", "mu opiate receptor (MOR)", "%", 61.6],
  ["COc1ccccc1CCC(=O)CC1c2c(cc3c(c2OC)OCO3)CC[N+]1(C)C (centres unmarked)", "mu opiate receptor (MOR)", "%", 129.3],
  ["COc1c2c(cc3c1C(CC(=O)Cc1ccc(Br)cc1)[N+](C)(C)CC3)OCO2 (centres unmarked)", "mu opiate receptor (MOR)", "%", 158.6],
  ["COc1ccccc1CC(O)CC1c2c(cc3c(c2OC)OCO3)CCN1C (centres unmarked)", "mu opiate receptor (MOR)", "%", 107.2],
  ["COc1ccc(CCC(=O)CC2c3c(cc4c(c3OC)OCO4)CC[N+]2(C)C)c(OC)c1 (centres unmarked)", "mu opiate receptor (MOR)", "%", 74.8],
  ["COCOc1ccc(CCC(=O)CC2c3c(cc4c(c3OC)OCO4)CC[N+]2(C)C)cc1 (centres unmarked)", "mu opiate receptor (MOR)", "%", 146.0],
  ["COc1c2c(cc3c1C(CC(=O)CCc1ccccc1)N(C)CC3)OCO2 (centres unmarked)", "mu opiate receptor (MOR)", "%", 98.2],
  ["COc1c2c(cc3c1C(CC(=O)CCc1ccc(F)cc1)[N+](C)(C)CC3)OCO2 (centres unmarked)", "mu opiate receptor (MOR)", "%", 118.8],
  ["COc1cc(OC)cc(C(=O)CC2c3c(cc4c(c3OC)OCO4)CC[N+]2(C)C)c1 (centres unmarked)", "mu opiate receptor (MOR)", "%", 188.0],
  ["COc1ccc(C(=O)CC2c3c(cc4c(c3OC)OCO4)CC[N+]2(C)C)c(O)c1 (centres unmarked)", "mu opiate receptor (MOR)", "%", 149.3],
  ["COc1c2c(cc3c1C(CC(=O)CCc1ccc(Cl)cc1)[N+](C)(C)CC3)OCO2 (centres unmarked)", "mu opiate receptor (MOR)", "%", 99.6],
  ["COc1ccccc1CC(O)CC1c2c(cc3c(c2OC)OCO3)CC[N+]1(C)C (centres unmarked)", "mu opiate receptor (MOR)", "%", 221.1],
  ["COc1ccc(C(=O)CC2c3c(cc4c(c3OC)OCO4)CC[N+]2(C)C)cc1 (centres unmarked)", "mu opiate receptor (MOR)", "%", 155.8],
  ["COc1cccc(OC)c1C(=O)CC1c2c(cc3c(c2OC)OCO3)CC[N+]1(C)C (centres unmarked)", "mu opiate receptor (MOR)", "%", 166.1],
  ["COc1c2c(cc3c1C(CC(=O)c1ccc(C#N)cc1)[N+](C)(C)CC3)OCO2 (centres unmarked)", "mu opiate receptor (MOR)", "%", 128.2]
]}
